ASSAYED_TARGET: CCDC6-RET-BaF3 (Homo sapiens, UniProt P07949)
Construct: fused on or other part: Q16204 (Coiled-coil domain-containing protein 6)
Sequence (P07949 whole entry, change not shown, the tested form may be a part): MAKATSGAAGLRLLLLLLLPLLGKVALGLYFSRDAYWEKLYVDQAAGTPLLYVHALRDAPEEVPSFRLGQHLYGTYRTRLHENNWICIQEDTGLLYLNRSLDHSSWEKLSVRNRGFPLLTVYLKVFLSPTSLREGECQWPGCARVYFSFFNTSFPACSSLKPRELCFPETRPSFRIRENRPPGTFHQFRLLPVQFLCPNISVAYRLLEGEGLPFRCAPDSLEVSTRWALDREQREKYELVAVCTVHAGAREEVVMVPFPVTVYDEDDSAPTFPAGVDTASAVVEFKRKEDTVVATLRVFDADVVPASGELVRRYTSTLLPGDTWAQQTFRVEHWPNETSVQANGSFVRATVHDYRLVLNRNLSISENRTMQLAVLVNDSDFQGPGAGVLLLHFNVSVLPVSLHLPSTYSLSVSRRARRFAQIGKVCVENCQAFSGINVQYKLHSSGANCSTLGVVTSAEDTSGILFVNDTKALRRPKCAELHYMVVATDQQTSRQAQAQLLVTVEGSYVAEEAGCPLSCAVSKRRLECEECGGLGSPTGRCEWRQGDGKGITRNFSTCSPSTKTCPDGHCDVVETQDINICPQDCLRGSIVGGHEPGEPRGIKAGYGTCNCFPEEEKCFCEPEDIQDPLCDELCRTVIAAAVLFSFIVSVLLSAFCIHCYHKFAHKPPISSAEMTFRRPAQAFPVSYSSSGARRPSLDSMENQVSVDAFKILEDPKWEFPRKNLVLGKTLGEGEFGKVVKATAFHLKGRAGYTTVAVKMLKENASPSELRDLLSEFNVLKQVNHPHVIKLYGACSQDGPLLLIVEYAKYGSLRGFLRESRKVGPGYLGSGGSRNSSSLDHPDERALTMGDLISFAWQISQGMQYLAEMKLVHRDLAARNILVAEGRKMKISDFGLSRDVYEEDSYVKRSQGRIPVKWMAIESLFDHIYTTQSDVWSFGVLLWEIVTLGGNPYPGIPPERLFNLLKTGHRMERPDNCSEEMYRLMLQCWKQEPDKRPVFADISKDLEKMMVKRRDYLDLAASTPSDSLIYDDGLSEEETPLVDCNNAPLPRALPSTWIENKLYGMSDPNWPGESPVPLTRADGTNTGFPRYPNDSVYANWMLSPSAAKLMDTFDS
MEASUREMENT_PROTOCOL: Growth inhibition of CCDC6-RET-BaF3 cells stably transfected with kinase (MTS)
Format: cell-based
CONDITION_SET: 48 h, read-out: CCDC6-RET (IC50/nM)
READOUT_LABEL: GI50 (nM)

| COMPOUND | VALUE_UNIT | GI50 |
| --- | --- | --- |
| CN1CCN(Cc2ccc(NC(=O)c3cc(Oc4nc(-c5ccncc5)nc5nn(C)cc45)ccc3Cl)cc2C(F)(F)F)CC1 [IV-o-2] | nM | 88.6 |
| CN1CCN(Cc2ccc(NC(=O)c3cccc(Oc4cc(-c5cccnc5)nc5c4ccn5C)c3)cc2C(F)(F)F)CC1 [V-I-3] | nM | 587 |

(a) Cc1ccc(C(=O)Nc2ccc(CN3CCN(C)CC3)c(C(F)(F)F)c2)cc1Oc1nc(-c2cccc(O)c2)nc2cc[nH]c12 [III-m-7]
(b) CN1CCN(Cc2cc(NC(=O)c3cccc(Oc4nc(-c5cccnc5)nc5c4cnn5C)c3)cc(C(F)(F)F)c2)CC1 [II-p-1]
Q) # return whichever of a and b has the smaller GI50 Please indicate the selected item by its label.
A) b
(b: 268 nM, a: 1410 nM)

(P) Cc1ccc(Oc2nc(-c3ccsc3)nc3c2ncn3C)cc1NC(=O)c1ccc(CN2CCN(C)CC2)c(C(F)(F)F)c1 [I-j-7]
(Q) Cc1ccc(Oc2nc(-c3cccnc3)nc3ccn(C)c23)cc1C(=O)Nc1cc(CN2CCN(C)CC2)cc(C(F)(F)F)c1 [III-r-3]
(R) Cc1ccc(C(=O)Nc2ccc(CN3CCN(C)CC3)c(C(F)(F)F)c2)cc1Oc1nc(N2CCOCC2)nc2c1cnn2C [II-m-15]
Q) I would appreciate it if you could sort these 3 compounds by GI50, starting from the smallest number. Your reply should list the labels following the order given in the request.
A) R, P, Q
(R: 111 nM, P: 1030 nM, Q: 3770 nM)

(A) Cc1ccc(NC(=O)c2ccc(CN3CCN(C)CC3)c(C(F)(F)F)c2)cc1Oc1cc(-c2ccncc2)nc2sccc12 [VII-i-2]
(B) Cc1ccc(C(=O)Nc2ccc(CN3CCN(C)CC3)c(C(F)(F)F)c2)cc1Oc1nc(-c2ccc(Cl)cc2)nc2ccn(C)c12 [III-m-14]
(C) Cc1ccc(Oc2nc(-c3ccoc3)nc3cc[nH]c23)cc1NC(=O)c1ccc(CN2CCN(C)CC2)c(C(F)(F)F)c1 [III-j-9]
(D) CN1CCN(Cc2ccc(C(=O)Nc3cc(Oc4nc(-c5ccncc5)nc5[nH]ncc45)ccc3Cl)cc2C(F)(F)F)CC1 [II-k-4]
Q) I would appreciate it if you could sort these 4 compounds by GI50, starting from the smallest number. Your reply should list the labels following the order given in the request.
A) D, C, A, B

(a) Cc1ccc(C(=O)Nc2cccc(C(F)(F)F)c2)cc1Oc1nc(-c2ccncc2)nc2c1cnn2C [II-e-2]
(b) Cc1ccc(Oc2ncnc3ccn(C)c23)cc1NC(=O)c1ccc(CN2CCN(C)CC2)c(C(F)(F)F)c1 [III-j-18]
Q) a or b : whose GI50 is greater? Please indicate the selected item by its label.
A) a
(a: 1430 nM, b: 477 nM)

(1) Cc1ccc(Oc2nc(-c3ccoc3)nc3c2cnn3C)cc1NC(=O)c1ccc(CN2CCN(C)CC2)c(C(F)(F)F)c1 [II-j-3]
(2) CCC(=O)NC1CCN(c2ccc(NC(=O)c3ccc(C)c(Oc4nc(-c5cccnc5)nc5ccn(C)c45)c3)cc2C(F)(F)F)CC1 [III-v-7]
Q) 1 or 2 : whose GI50 is greater? Please indicate the selected item by its label.
A) 2
(2: 148000 nM, 1: 1420 nM)

(P) Cc1ccc(C(=O)Nc2cc(CN3CCN(C)CC3)cc(C(F)(F)F)c2)cc1Oc1nc(-c2cccnc2)nc2c1cnn2C [II-s-1]
(Q) CNc1nc(Oc2cc(C(=O)Nc3ccc(CN4CCN(C)CC4)c(C(F)(F)F)c3)ccc2C)c2c(ccn2C)n1 [III-m-19]
Q) P or Q : whose GI50 is greater? Please indicate the selected item by its label.
A) Q
(Q: 2510 nM, P: 264 nM)

(I) Cc1ccc(Oc2nc(-c3ccncc3)nc3ccn(C)c23)cc1C(=O)Nc1cc(CN2CCN(C)CC2)cc(C(F)(F)F)c1 [III-r-4]
(II) Cc1ccc(Oc2nc(-c3ccoc3)nc3nn(C)cc23)cc1C(=O)Nc1ccc(CN2CCN(C)CC2)c(C(F)(F)F)c1 [IV-n-10]
Q) # return whichever of I and II has the smaller GI50 Please indicate the selected item by its label.
A) I
(I: 187 nM, II: 2160 nM)

(a) Cc1ccc(C(=O)Nc2ccc(CN3CCN(C)CC3)c(C(F)(F)F)c2)cc1Oc1nc(-c2ccc(O)cc2)nc2cc[nH]c12 [III-m-26]
(b) Cc1ccc(NC(=O)c2ccc(CN3CCN(C)CC3)c(C(F)(F)F)c2)cc1Oc1nc(-c2ccncc2)nc2ccn(C)c12 [III-i-4]
Q) # return whichever of a and b has the smaller GI50 Please indicate the selected item by its label.
A) a
(a: 1320 nM, b: 2020 nM)
